Listed next: entries and their corresponding TGI.
- Test system: KM20L2 colon
- assay.notes: NCI tumour cell line growth inhibition, 48 h

| compound | target.or.system | censoring.operator | TGI, µM |
| --- | --- | --- | --- |
| CCN(CC)CCCNc1ncc(C)c2[nH]c3ccncc3c12 | KM20L2 colon | = | 31 |
| O=c1[nH]c2cc([N+](=O)[O-])ccc2nc1/C(=N/Nc1ccccc1)C(O)c1ccc(C(O)/C(=N\Nc2ccccc2)c2cnc3cc([N+](=O)[O-])ccc3n2)cc1 (stereo not drawn) | KM20L2 colon | > | 100 |
| COc1ccc(N/N=C(\CCN(C)C)c2ccccc2)cc1 | KM20L2 colon | = | 1.71 |
| CC(=O)[O-].[Mn+3].[O-]c1ccccc1C=NCCN=Cc1ccccc1[O-] | KM20L2 colon | > | 100 |
| Cc1ccc(C2NC(=O)c3ccccc3N2)s1 (stereo not drawn) | KM20L2 colon | = | 39.3 |
| CC1=C(C(=O)Nc2cc(=O)n(C)c(=O)n2C)C(c2ccc([N+](=O)[O-])cc2)C(C(=O)Nc2cc(=O)n(C)c(=O)n2C)=C(C)N1 | KM20L2 colon | > | 100 |
| O=C1C=CC2=[N+]([O-])C(c3ccccc3)(c3ccccc3)C(=Nc3ccccc3)C2=C1 | KM20L2 colon | = | 5.22 |
| CC(C)(C)NC(=O)NC12CC3CC(CC(F)(C3)C1)C2 | KM20L2 colon | > | 100 |

###

- System: OVCAR-5 ovarian
- assay.notes: NCI tumour cell line growth inhibition, 48 h

| compound.string | TGI |
| --- | --- |
| COc1ccc(NC(=O)CC/C(CC(=O)C(C)(C)C)=N\NC(=O)C(N)=O)cc1 | > 100 µM |
| Cc1ccc2c(c1)C(=O)N1CCC[C@H]1C=N2 | > 93.1 µM |
| COc1cc(Nc2ncc(F)c(Nc3ccc4c(n3)NC(=O)C(C)(C)O4)n2)cc(OC)c1OC | > 10 µM |
| CCOC(=O)c1sc(N/N=C2\NC(=O)/C(=C/c3ccc([N+](=O)[O-])cc3)S2)nc1C | > 100 µM |
| CCOC(=O)c1c(C)cc(=O)n2c1[nH]c1ccccc12 | > 100 µM |
| O=C(C[n+]1ccccc1)N/N=C(\Cc1nc2ccc([N+](=O)[O-])cc2[nH]c1=O)C(=O)Nc1cc(Cl)c(Cl)cc1Cl | > 100 µM |
| CN1CCN(c2cc(C(=O)Nc3cc4cc(-c5cnn(C)c5)ccc4cn3)ccn2)CC1 | 11.9 µM |
| CCOC(=O)Cc1csc2[n+]1C(=O)/C(=C\c1cccc(Cl)c1Cl)S2 | > 100 µM |
| OC[C@]1(n2nc3ccccc3n2)OC[C@@H]1c1ccccc1 | > 100 µM |
| CC(=O)Oc1cc2c(c3ncccc13)OC(C)(C)C2 | 29 µM |

###

Recorded TGI values for a group of compounds are listed next.
- Tested on: OVCAR-5 ovarian
- assay.notes: NCI tumour cell line growth inhibition, 48 h

| compound | target.or.system | TGI |
| --- | --- | --- |
| COC(=O)c1cccc(N[C@@H]2c3cc4c(cc3C(c3cc(OC)c(O)c(OC)c3)[C@H]3C(=O)OCC32)OCO4)c1 (stereo not given in full) | OVCAR-5 ovarian | > 100 µM |
| O=c1cc(-c2ccccc2)oc2cc(O)cc(O)c12 | OVCAR-5 ovarian | 37.4 µM |
| O=C(Cc1nc2ccccc2s1)C(=O)Nc1cccc(Cl)c1 | OVCAR-5 ovarian | > 100 µM |
| CN(C)/N=C(/c1nc2ccc([N+](=O)[O-])cc2[nH]c1=O)C(O)c1ccco1 (stereo not given) | OVCAR-5 ovarian | > 100 µM |
| CCOP(=O)(C/C=C/Cn1nc(Br)c(=O)[nH]c1=O)OCC | OVCAR-5 ovarian | > 100 µM |
| O=C(Nc1c(C(F)(F)F)cc(-c2ccccc2)[nH]c1=O)N1CCOCC1 | OVCAR-5 ovarian | > 100 µM |
| N#CC(=C1CCCCC1)c1nc2ccccc2o1 | OVCAR-5 ovarian | > 100 µM |
| COc1ccc(C(=O)C(c2ccc(OC)cc2)C2OC(=O)C(Cl)=C2Cl)cc1 (stereo not given) | OVCAR-5 ovarian | > 100 µM |
| CCN1C[C@]2(C)CC[C@H](OC)C34C1C([C@H](OC(C)=O)[C@@H]32)[C@@]1(OC)C[C@H](OC)[C@H]2C[C@@H]4[C@@H]1[C@H]2O | OVCAR-5 ovarian | > 100 µM |
| COc1cc2c(cc1OC)C(OC)N(C)c1c-2ccc2cc3c(cc12)OCO3 (stereo not given) | OVCAR-5 ovarian | 11.8 µM |
